Hello, the source for this data is ChEMBL document CHEMBL4627400, in case you need it.

# MEASUREMENT_TARGET: Glutamate NMDA receptor; Grin1/Grin2c (Rattus norvegicus) (UniProt P35439+Q00961)
# ASSAY_OVERVIEW: Positive allosteric modulation of recombinant rat GluN1a/GluN2C receptor expressed in Xenopus laevis oocytes assessed as increase in glycine/L-glutamate-induced channel current at 30 uM by two-electrode voltage clamp method relative to control
# Assay type: cell-based
REPORTED_PROPERTY: %max (%)
Express the result in % but write the number alone.

[
  {
    "MOLECULE": "COc1cc2c(cc1OC)C(COc1cccnc1)N(C(=O)c1cccc(C(F)(F)F)c1)CC2 (centres undefined)",
    "UNIT_INFO": "%",
    "OBSERVED": 90
  },
  {
    "MOLECULE": "COc1ccc(OCC2c3ccc(OCC(C)C)cc3CC(=O)N2Cc2cccc(Cl)c2)cc1 (centres undefined)",
    "UNIT_INFO": "%",
    "OBSERVED": 280
  },
  {
    "MOLECULE": "COc1ccc(OCC2c3cccn3CCN2C(=O)c2cccc(C(F)(F)F)c2)cc1 (centres undefined)",
    "UNIT_INFO": "%",
    "OBSERVED": 380
  }
]

Lab note: next molecule to report on.
IN: // query %max value for entry COc1ccc(OCC2c3sccc3CCN2C(=O)/C=C/C(F)(F)F)cc1 (centres undefined)
OUT: 290
